Test system: MDA-MB-231
Assay: Antiproliferative activity, MTT assay
Format: cell-based, human
Settings: Homo sapiens, MDA-MB-231; MTT, 72 h; standard deviations within 50%
Description: Human breast cancer MCF7, MDA-MB-231, SkBr-3 (purchased from the ATCC collection), human keratinocytes HaCaT, murine fibroblasts L929 and macrophages J774 cells (Collection of Shemyakin-Ovchinnikov Institute of Bioorganic Chemistry RAS) were cultured in standard DMEM or RPMI-1640 medium (ThermoScientific, Waltham, MA, USA) supplemented with 10% fetal bovine serum (FBS, Cytiva, Marlborough, MA, USA) at 37 °C, 5 % CO2 and 80–85% humidity (NuAir CO2 incubator). […]
Endpoint: IC50 (µM)

Recorded results for 4 compounds are shown here.
For this compound ( O=C(Nc1ccc(-c2ccc3c(N4CCOCC4)nc(N4CCOCC4)nc3c2)cc1)NC1CC1 ), measured IC50 is 10.5

response.value for O=C(NCc1ccco1)Nc1ccc(-c2ccc3c(N4CCOCC4)nc(N4CCOCC4)nc3c2)cc1 (field: IC50) = 6.7

IC50 for O=C(NCCc1cccnc1)Nc1ccc(-c2ccc3c(N4CCOCC4)nc(N4CCOCC4)nc3c2)cc1 is 1

// IC50 lookup, compound = CCOC(=O)N1CCN(C(=O)Nc2ccc(-c3ccc4c(N5CCOCC5)nc(N5CCOCC5)nc4c3)cc2)CC1 , result: 17

A: O=C(Nc1ccc(-c2ccc3c(N4CCOCC4)nc(N4CCOCC4)nc3c2)cc1)Nc1ccccn1
B: COc1ccc(CNC(=O)Nc2ccc(-c3ccc4c(N5CCOCC5)nc(N5CCOCC5)nc4c3)cc2)cc1
Lookup: Short answer wanted: higher IC50, A or B ? Lab note: record the label of whichever item you select.
Found: A
(A: 14 µM, B: 1.7 µM)

###

Property: melting point; scope: individual compounds

// sample O=C(Nc1ccc(-c2ccc3c(N4CCOCC4)nc(N4CCOCC4)nc3c2)cc1)Nc1ccc([N+](=O)[O-])cc1 , its melting point was 240 to 242 °C

Entry O=C(Nc1ccc(-c2ccc3c(N4CCOCC4)nc(N4CCOCC4)nc3c2)cc1)Nc1ccccn1 ; melting point = 210 to 212 °C

Lookup result for O=C(Nc1ccc(-c2ccc3c(N4CCOCC4)nc(N4CCOCC4)nc3c2)cc1)Nc1cccc2ccccc12 ; measured melting point: 228 to 230 °C

// melting point lookup, compound = O=C(Nc1ccc(-c2ccc3c(N4CCOCC4)nc(N4CCOCC4)nc3c2)cc1)NC1CC1 , result: 83 to 85 °C

New cases:
The reported melting point of the compound Nc1ccc(-c2ccc3c(N4CCOCC4)nc(N4CCOCC4)nc3c2)cc1 was 191 to 193 °C

Looking up CCOC(=O)N1CCN(C(=O)Nc2ccc(-c3ccc4c(N5CCOCC5)nc(N5CCOCC5)nc4c3)cc2)CC1 , I found its melting point recorded as 109 to 111 °C

###

Target: recombinant PI3K (p110α/p85α) (Homo sapiens, UniProt P42336)
Sequence (P42336 whole entry): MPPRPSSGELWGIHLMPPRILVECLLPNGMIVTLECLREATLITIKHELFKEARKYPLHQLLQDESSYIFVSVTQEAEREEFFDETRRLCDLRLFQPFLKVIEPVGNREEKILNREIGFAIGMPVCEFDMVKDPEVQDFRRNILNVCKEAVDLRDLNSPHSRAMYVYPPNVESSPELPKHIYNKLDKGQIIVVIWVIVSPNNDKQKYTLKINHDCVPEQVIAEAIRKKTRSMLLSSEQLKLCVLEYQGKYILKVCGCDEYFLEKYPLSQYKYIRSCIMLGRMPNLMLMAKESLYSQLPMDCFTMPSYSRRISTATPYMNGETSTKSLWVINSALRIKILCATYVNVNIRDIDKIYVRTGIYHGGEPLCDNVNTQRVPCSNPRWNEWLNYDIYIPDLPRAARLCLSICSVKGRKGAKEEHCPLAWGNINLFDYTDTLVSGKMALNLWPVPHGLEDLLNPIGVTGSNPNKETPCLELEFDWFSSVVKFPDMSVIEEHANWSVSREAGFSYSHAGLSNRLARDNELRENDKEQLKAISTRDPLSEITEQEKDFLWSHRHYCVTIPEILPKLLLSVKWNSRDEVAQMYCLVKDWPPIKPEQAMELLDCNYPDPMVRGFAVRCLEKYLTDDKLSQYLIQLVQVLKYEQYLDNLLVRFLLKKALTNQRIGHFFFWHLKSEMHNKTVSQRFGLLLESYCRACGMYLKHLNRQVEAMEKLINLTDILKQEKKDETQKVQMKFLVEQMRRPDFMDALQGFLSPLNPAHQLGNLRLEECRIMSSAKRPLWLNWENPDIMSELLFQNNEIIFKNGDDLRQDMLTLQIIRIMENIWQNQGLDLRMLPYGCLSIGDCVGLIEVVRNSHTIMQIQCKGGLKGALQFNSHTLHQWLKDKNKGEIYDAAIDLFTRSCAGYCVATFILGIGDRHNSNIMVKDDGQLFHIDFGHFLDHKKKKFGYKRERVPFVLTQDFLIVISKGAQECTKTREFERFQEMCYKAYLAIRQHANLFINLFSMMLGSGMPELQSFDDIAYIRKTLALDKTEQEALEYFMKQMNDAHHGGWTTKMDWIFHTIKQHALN
Sequence (P27986 whole entry partner): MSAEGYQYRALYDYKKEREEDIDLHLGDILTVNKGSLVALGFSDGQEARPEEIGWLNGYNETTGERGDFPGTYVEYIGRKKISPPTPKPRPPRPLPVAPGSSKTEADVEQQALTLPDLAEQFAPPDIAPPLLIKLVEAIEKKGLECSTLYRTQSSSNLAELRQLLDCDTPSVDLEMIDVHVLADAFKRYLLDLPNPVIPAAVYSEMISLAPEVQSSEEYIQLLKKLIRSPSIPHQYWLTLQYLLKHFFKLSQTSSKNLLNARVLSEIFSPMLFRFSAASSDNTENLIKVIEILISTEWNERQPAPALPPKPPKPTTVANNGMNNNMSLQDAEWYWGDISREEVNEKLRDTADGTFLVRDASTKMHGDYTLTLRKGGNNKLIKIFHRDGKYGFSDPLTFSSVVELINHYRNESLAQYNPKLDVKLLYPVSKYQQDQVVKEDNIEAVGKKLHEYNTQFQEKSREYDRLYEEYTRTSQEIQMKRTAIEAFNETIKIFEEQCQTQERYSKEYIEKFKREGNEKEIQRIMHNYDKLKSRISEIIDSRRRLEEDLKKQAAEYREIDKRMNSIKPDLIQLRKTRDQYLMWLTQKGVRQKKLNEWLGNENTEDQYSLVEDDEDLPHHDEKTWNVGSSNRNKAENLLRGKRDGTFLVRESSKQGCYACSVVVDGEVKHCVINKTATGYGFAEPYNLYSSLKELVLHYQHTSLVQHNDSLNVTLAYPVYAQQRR
Assay: PI3K inhibition assay (HTRF)
Conditions: FRET/HTRF detection; approximate; read-out: IC50 PI3Kα
Endpoint: IC50

# compound O=C(NCCc1cccnc1)Nc1ccc(-c2ccc3c(N4CCOCC4)nc(N4CCOCC4)nc3c2)cc1 ; its IC50 = ~500 µM

More entries:
Item: COc1ccc(CNC(=O)Nc2ccc(-c3ccc4c(N5CCOCC5)nc(N5CCOCC5)nc4c3)cc2)cc1 | IC50: ~50 µM

Taken from paper PMC9503112.
